The measured values listed here are drawn from the Human Domainome abundance scans (Beltran et al. 2025).

B1: Membrane-associated guanylate kinase, WW and PDZ domain-containing protein 2, residues 296 to 340; numbered along this chain, Q86UL8 (parent)
chain: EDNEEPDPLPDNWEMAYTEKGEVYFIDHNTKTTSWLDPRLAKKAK

variants of: B1; assay: abundance fitness (aPCA) (normalised: wild type 0, dead -1); higher = more abundant; growth selection in yeast, the domain comes from the species named; conditions: Homo sapiens
ATTRIBUTE_MEASURED: abundance fitness

[
  {
    "MUTATION_LIST": "N29S",
    "RESULT": -0.011
  },
  {
    "MUTATION_LIST": "D2V",
    "RESULT": 0.074
  },
  {
    "MUTATION_LIST": "Y17N",
    "RESULT": -0.042
  },
  {
    "MUTATION_LIST": "K42Y",
    "RESULT": -0.033
  },
  {
    "MUTATION_LIST": "W13R",
    "RESULT": -0.642
  },
  {
    "MUTATION_LIST": "Y24S",
    "RESULT": -0.703
  },
  {
    "MUTATION_LIST": "F25S",
    "RESULT": -0.777
  },
  {
    "MUTATION_LIST": "D37V",
    "RESULT": -0.595
  },
  {
    "MUTATION_LIST": "K31Y",
    "RESULT": -0.235
  },
  {
    "MUTATION_LIST": "T32Q",
    "RESULT": -0.199
  },
  {
    "MUTATION_LIST": "A16D",
    "RESULT": -0.398
  },
  {
    "MUTATION_LIST": "P6L",
    "RESULT": 0.014
  },
  {
    "MUTATION_LIST": "K20R",
    "RESULT": -0.032
  },
  {
    "MUTATION_LIST": "L40G",
    "RESULT": 0.076
  },
  {
    "MUTATION_LIST": "T32H",
    "RESULT": -0.434
  },
  {
    "MUTATION_LIST": "N29Y",
    "RESULT": -0.122
  },
  {
    "MUTATION_LIST": "K31C",
    "RESULT": -0.024
  },
  {
    "MUTATION_LIST": "D37F",
    "RESULT": -0.846
  },
  {
    "MUTATION_LIST": "G21C",
    "RESULT": -0.26
  },
  {
    "MUTATION_LIST": "E22G",
    "RESULT": -0.359
  },
  {
    "MUTATION_LIST": "D37Q",
    "RESULT": -0.607
  },
  {
    "MUTATION_LIST": "D27A",
    "RESULT": -0.786
  },
  {
    "MUTATION_LIST": "E19A",
    "RESULT": 0.054
  },
  {
    "MUTATION_LIST": "I26M",
    "RESULT": 0.023
  },
  {
    "MUTATION_LIST": "W35T",
    "RESULT": -0.451
  },
  {
    "MUTATION_LIST": "E22D",
    "RESULT": -0.091
  },
  {
    "MUTATION_LIST": "D37T",
    "RESULT": -0.675
  },
  {
    "MUTATION_LIST": "P8M",
    "RESULT": 0.019
  }
]
